protocol details: TULIP Phase II trial, plasma concentrations of obicetrapib
Type: in vivo, humans
condition summary: both sexes, human, plasma, oral, 10 mg, Obicetrapib 10 mg; Week 20, eight weeks after the end of treatment; read-out: Mean (SD) Plasma Level
endpoint name: concentration at 20 weeks (ng/mL)

>>> val("CCOC(=O)N1c2ccc(C(F)(F)F)cc2C(N(Cc2cc(C(F)(F)F)cc(C(F)(F)F)c2)c2ncc(OCCCC(=O)O)cn2)CC1CC (stereo not shown) [Obicetrapib]")
9.8

---

protocol details: 39-week oral (gavage) toxicity/toxicokinetic study with 13-week treatment-free recovery period in cynomolgus monkeys
Assay type: in vivo, cynomolgus monkeys (Macaca fascicularis)
condition summary: male, cynomolgus monkey, plasma, po, 50 mg/kg/day; Day 1; 50 mg/kg/d; males; mean
Experimental: CETP is present and active in non‐human primates, rabbits, and hamsters, but is absent in most other animal species, including mice, rats, and dogs.[2], [31], [32] […] Individual body weights were recorded once weekly (including Day 1 before the start of dosing) from time of allocation and on the day of necropsy. […]
endpoint name: Cmax (ng/mL)

>>> val("CCOC(=O)N1c2ccc(C(F)(F)F)cc2C(N(Cc2cc(C(F)(F)F)cc(C(F)(F)F)c2)c2ncc(OCCCC(=O)O)cn2)CC1CC (stereo not shown)")
9600
